biological target: human muscarinic receptors M3 (Homo sapiens); construct: expressed in transfected cells; host or cells: CHO-K1 (chinese hamster ovary-K1), stably transfected; membrane preparations; experiment: biochemical; type: binding; conditions: read-out: % INHIBITION concentration: 1.00E−07 M
Sequence (P20309 whole entry): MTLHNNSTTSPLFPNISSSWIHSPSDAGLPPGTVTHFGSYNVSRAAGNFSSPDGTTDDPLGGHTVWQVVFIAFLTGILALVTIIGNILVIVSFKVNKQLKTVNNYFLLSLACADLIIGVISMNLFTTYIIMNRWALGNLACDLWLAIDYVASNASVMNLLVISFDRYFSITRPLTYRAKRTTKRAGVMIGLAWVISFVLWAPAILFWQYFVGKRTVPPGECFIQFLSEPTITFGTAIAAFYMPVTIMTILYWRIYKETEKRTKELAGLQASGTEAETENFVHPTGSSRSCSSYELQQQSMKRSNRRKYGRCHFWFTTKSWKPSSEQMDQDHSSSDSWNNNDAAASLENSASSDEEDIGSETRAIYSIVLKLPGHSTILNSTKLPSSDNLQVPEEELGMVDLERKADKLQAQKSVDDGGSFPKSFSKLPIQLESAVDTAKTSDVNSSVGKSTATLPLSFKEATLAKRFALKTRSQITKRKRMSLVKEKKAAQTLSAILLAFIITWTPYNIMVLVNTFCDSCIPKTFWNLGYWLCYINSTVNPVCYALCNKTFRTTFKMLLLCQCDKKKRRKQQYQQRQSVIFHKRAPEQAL
Structures can show the parent of a compound that is named as a salt.
# binarize inhibition at 0.1 µM: threshold 80% inclusive, high side 1 (yes), low side 0 (no)

{"columns": ["COMPOUND", "ANSWER_LABEL"],
 "data": [
  ["O=C(O[C@H]1C[N+]2(CCCc3ccccc3)CCC1CC2)[C@@](O)(c1cccs1)C1CCCC1 [Example 57, trifluoroacetate]", "0 (no)"],
  ["O=C(O[C@H]1C[N+]2(CCCc3cccs3)CCC1CC2)[C@](O)(c1cccs1)C1CCCC1 [Example 23, trifluoroacetate]", "0 (no)"],
  ["O=C(O[C@H]1C[N+]2(CCc3ccccc3)CCC1CC2)[C@@](O)(c1cccs1)C1CCCC1 [Example 56, trifluoroacetate]", "0 (no)"],
  ["O=C(CCC[N+]12CCC(CC1)[C@@H](OC(=O)[C@](O)(c1cccs1)C1CCCC1)C2)c1ccccc1 [Example 38, trifluoroacetate]", "1 (yes)"],
  ["CN(CCC[N+]12CCC(CC1)[C@@H](OC(=O)[C@](O)(c1cccs1)C1CCCC1)C2)c1ccccc1 [Example 36, trifluoroacetate]", "1 (yes)"],
  ["O=C(O[C@H]1C[N+]2(CCc3ccccc3)CCC1CC2)[C@](O)(c1ccccc1)C1CCCCC1 [Example 70, trifluoroacetate]", "0 (no)"]
]}
